# Measurement notes: Apparent permeability from apical to basolateral side in […] TC7 cells
# Type: ADME, cell-based
# Measurement conditions: Caco-2
Measurement kind: Papp A→B (×10⁻⁶ cm/s)

Cn1c(=O)n(C2CCN(CCCn3ccnc(-c4ccc(Cl)c(CNC(=O)c5ccc(F)cc5)c4)c3=O)CC2)c2cc(Cl)ccc21; 0.6

[A] Cn1c(=O)n(C2CCN(CCCn3cncc(-c4ccc(Cl)c(CNC(=O)c5ccc(F)cc5)c4)c3=O)CC2)c2cc(Cl)ccc21
[B] Cn1c(=O)n(C2CCN(CCCn3nccc(-c4ccc(Cl)c(CNC(=O)c5ccc(F)cc5)c4)c3=O)CC2)c2cc(Cl)ccc21
Q. # returns the entry with the larger Papp A→B; inputs A and B Bench note: the answer is the label of the chosen record.
A. A
(A: 2.5 ×10⁻⁶ cm/s, B: 1.3 ×10⁻⁶ cm/s)
